# Test system: UACC-257
# experimental_details: NCI tumour cell line growth inhibition, 48 h
Activity calls are given as the source filed them. Rule as the data show it: active = GI50 up to about 1.1 µM and inactive = higher.
Outcome codes: class 1 = active, class 0 = inactive

                                   compound  label_value
0  c1cc(NNc2cccc(-c3nnn[nH]3)c2)cc(-c2nnn[nH]2)c1      class 0
1  C=C1CCC2[C@](C)(CCC[C@]2(C)C(=O)O)[C@@H]1CCc1ccoc1 (stereo not given in full)      class 0
2                 O=C(/C=N/O)Nc1cccc(Cl)c1I      class 0
3     CNS(=O)(=O)NN(C)S(=O)(=O)c1ccc(Cl)cc1      class 0
4  COc1ccc(NC(=O)CC(=O)N2N=C(N(c3ccccc3)c3ccccc3)CC2c2ccccc2)cc1 (stereo not given)      class 0
5     CN(C)CCNC(=O)c1cccc2nc(-c3ccccc3)oc12      class 0
6  Cc1nc(C)c(N2CCN(S(=O)(=O)N(Cc3ccccc3)Cc3ccccc3)CC2)c(O)n1      class 0
7  CC(=O)[C@]1(O)Cc2c(O)c3c(c(O)c2C(OC2OC(C)C(O)C(O)C2F)C1)C(=O)c1ccccc1C3=O (stereo not given in full)      class 1
8  CC(=O)NC1c2ccccc2C(C)(C)C12CCC1(CC2)OCCO1 (stereo not given)      class 0
9  CCOP(=O)(OCC)C(Nc1ccc(Cl)cc1)c1ccc(F)cc1 (stereo not given)      class 0

###

# Tested on: SNB-19
# experimental_details: NCI tumour cell line growth inhibition, 48 h
The source made the active and inactive calls. Cut-off read from the data, not from the text of the source: active = GI50 up to about 1.1 µM and inactive = higher.
Measured GI50 accompanies every entry in the list below.
observed_property: GI50

                                   molecule       value_measured
0  C=C1CCC2[C@](C)(CCC[C@]2(C)C(=O)O)[C@@H]1CCc1ccoc1 (stereo not given in full)   43.5 µM (inactive)
1  O=C(c1cc(Cl)cc(Cl)c1)N(Cc1cccnc1)C(=S)N(Cc1cccnc1)C(=O)c1cc(Cl)cc(Cl)c1   52.6 µM (inactive)
2  CC(C)NCC(O)c1cc(OCc2ccccc2)c(OCc2ccccc2)cc1NC(=O)CCC(=O)O (stereo not given)   12.6 µM (inactive)
3        COC(=O)C1=CC(=O)[C@@H]2CCCC[C@H]12  > 100 µM (inactive)
4  CC(C)C(Sc1nc(-c2ccccc2)c(-c2ccccc2)[nH]1)C(=O)N/N=C/c1ccc(Cl)cc1 (stereo not given)   36.9 µM (inactive)

###

# Tested on: M19-MEL
# experimental_details: NCI tumour cell line growth inhibition, 48 h
Calls of active or inactive are those of the source. Rule as the data show it: active = GI50 up to about 1.1 µM and inactive = higher.
Outcome codes: active, inactive

molecule	study_target	label_value
C/C(CN1C(=O)c2ccccc2C1=O)=N\NS(=O)(=O)c1ccc(Br)cc1	M19-MEL	inactive
O=C1[C@H]2ON(c3ccccc3)C(c3ccc(Cl)cc3Cl)[C@H]2C(=O)N1c1ccc(Cc2ccc(N3C(=O)[C@@H]4ON(c5ccccc5)C(c5ccc(Cl)cc5Cl)[C@@H]4C3=O)cc2)cc1 (stereo partly specified)	M19-MEL	inactive
COC(OC)c1cc2c(cc1C=O)OCO2	M19-MEL	inactive
C/C(=N\N=C(N)N)c1sc(-c2nc(C)c(/C(C)=N/N=C(N)N)s2)nc1C	M19-MEL	inactive
Cc1cc(O)nc(NN2C(Cl)C(=O)C2c2c(O)ccc3ccccc23)n1 (stereo unspecified)	M19-MEL	inactive
Cc1ccc(S(=O)(=O)NC(=O)NC23CC4CC(CC(F)(C4)C2)C3)cc1	M19-MEL	inactive
COc1cc2c3c(c1OC)Oc1ccc(cc1)CC1c4c(cc(OC)c(OC)c4Oc4ccc(cc4)CC3N(C)CC2)CCN1C (stereo unspecified)	M19-MEL	inactive
CC(=O)OC1CC2(O)C(CCC3(C)C(c4ccc(=O)oc4)CCC32O)C2(C)CCC(O)C=C12 (stereo unspecified)	M19-MEL	active
Cc1nc2c(=O)[nH]c(=O)n(C)c2[nH]c1=O.c1ccncc1	M19-MEL	inactive
CCP(C)(=O)CC	M19-MEL	inactive
CN1CN(C(=O)N2CN(C)C(=O)N(C)C2)CN(C)C1=O	M19-MEL	inactive
C#CCOCn1cnc2c(N)ncnc21	M19-MEL	inactive
Cc1ccc(C2CC(c3ccc([N+](=O)[O-])cc3)=Nc3ccccc3S2)cc1 (stereo unspecified)	M19-MEL	inactive
CC1=C(Cl)C=CP(=O)(OC(C)C)C1 (stereo unspecified)	M19-MEL	inactive
O=C1CCC2(c3ccc(Cl)cc3)Nc3ccccc3N12 (stereo unspecified)	M19-MEL	inactive
CSc1n[n+]2c(s1)SCCC2	M19-MEL	inactive

###

# Tested on: RXF 393
# experimental_details: NCI tumour cell line growth inhibition, 48 h
The source made the active and inactive calls. Cut-off read from the data, not from the text of the source: active = GI50 up to about 1.1 µM and inactive = higher.
Outcome codes: 1 (yes) (active), 0 (no) (inactive)

compound	label_value
Cc1ccnc2[nH]c(-c3ccccc3)cc(=O)c12	1 (yes)
CN(CO)c1nc(N(C)CO)nc(N(C)CO)n1 [TRIMELAMOL]	0 (no)
CCOC(=O)C(Cc1ccc2c(c1)CCC2)(Cc1ccc2c(c1)CCC2)C(=O)OCC	0 (no)
CN(C)CC1CC/C(=C\c2ccc(O)cc2)C1=O (centres undefined)	0 (no)
O=C(CC(=O)n1nc(-c2ccccc2)c(/N=N/c2ccccc2Cl)c1-c1ccccc1)Nc1ccc(Cl)cc1	0 (no)
Cc1cc(N(CCC#N)CCC#N)ccc1C(/N=N/c1ccc([N+](=O)[O-])cc1)=N\NC(=O)c1ccccc1	0 (no)
C/C=C(\C)[C@@H](O)C(=O)O[C@@H]1CC(C(C)(C)O)[C@](C)(CCC(=O)OC)[C@H]2[C@H](OC(=O)[C@H](O)[C@H](C)CC)C[C@]3(C)C(=CC[C@H]3[C@H]3CO[C@H](C=C(C)C)C3)[C@]12C (some centres undefined)	0 (no)
CC(=O)O[C@@H](C1C[C@@H](C)[C@H]2[C@@](O)(O1)[C@H](O)[C@@]1(C)C3=CC[C@H]4C(C)(C)[C@@H](OC5OCC(O)C(O)C5O)CC[C@@]45C[C@@]35CC[C@]21C)C(C)(C)O (some centres undefined)	0 (no)
CNc1ccc2nc(-c3ccc(OC(=O)N(C)C)cc3)cn2c1	0 (no)

###

# Tested on: KM12
# experimental_details: NCI tumour cell line growth inhibition, 48 h
Active and inactive are the calls of the source. Cut-off read from the data, not from the text of the source: active = GI50 up to about 1.1 µM and inactive = higher.
Outcome codes: active, inactive

molecule	study_target	label_value
C/C(=N\Nc1nc2ccccc2o1)c1ncccn1	KM12	active
CN1CN(C(=O)N2CN(C)C(=O)N(C)C2)CN(C)C1=O	KM12	inactive
CCOC(=O)C(=CNC(=S)c1ccncc1)C(=O)OCC	KM12	inactive
Nc1nc(SC/C=C/c2ccccc2)c2[nH]cnc2n1	KM12	inactive
C1=N\c2ccc(cc2)-c2ccc(cc2)/N=C\c2ccc(cc2)OCc2cccc(n2)COc2ccc/1cc2	KM12	inactive
Cn1c(-c2ccccc2)cc(-c2cccs2)c1-c1ccsc1	KM12	inactive
N#CC12C(=O)N3C(=NC(c4ccco4)NC3c3ccco3)C1(C#N)C(c1ccco1)NC1=C2CCCC1 (configuration not stated)	KM12	inactive
CCCCCC(O)(CCCCC)CCCCCCCCC1=C(O)C(=O)c2ccccc2C1=O	KM12	inactive
Cc1ccc(S(=O)(=O)N2CCCSCCN(S(=O)(=O)c3ccc(C)cc3)CCCSCC2)cc1	KM12	inactive
O=C(CCC(=O)Nc1ccc(Cl)c(Cl)c1)CC(=O)c1ccc(Cl)cc1	KM12	inactive
O=C1OCC2OC(=O)c3cc(O)c(O)c(O)c3-c3c(O)c(O)c(O)c4c3C(=O)OC(C2OC(=O)c2cc(O)c(O)c(O)c2-c2c1cc(O)c(O)c2O)C1OC(=O)c2c-4c(O)c(O)c(O)c2[C@@H]1C(O)C(O)C(O)C(O)CO (some centres not stated)	KM12	inactive
Nc1nc(Cl)cc(NCC2CC(O)(CO)C2)n1 (configuration not stated)	KM12	inactive
CCOP(=O)(OCC)C(Nc1ccc(Cl)cc1)c1ccc(F)cc1 (configuration not stated)	KM12	inactive
Cc1nc2c(=O)[nH]c(=O)n(C)c2[nH]c1=O.c1ccncc1	KM12	inactive
c1ccc2c(c1)NC(C1OC3CCCN3C1C1Nc3ccccc3S1)S2 (configuration not stated)	KM12	inactive
C=C(CCC/C(C)=C/C=C/[C@H](C)CCCc1ccoc1)C[C@@H]1OC(=O)[C@H](C)[C@@H]1O	KM12	inactive
Cc1cc(O)nc(NN2C(Cl)C(=O)C2c2c(O)ccc3ccccc23)n1 (configuration not stated)	KM12	inactive
COc1cccc(/C=N/n2c(Cc3ccc(Cl)cc3)n[nH]c2=O)c1	KM12	inactive
C[C@]12CC[C@@H]3c4cc(Br)c(O)c(Br)c4CC[C@H]3[C@@H]1CC(Br)C2=O (some centres not stated)	KM12	inactive
CNC(=O)Oc1ccc(-c2cn3cc(OC(=O)NC)ccc3n2)cc1	KM12	inactive
COc1ccc(N2C=Nn3c(nc4sc5c(c4c3=O)CCCC5)C2)cc1	KM12	inactive
COCN1C(=O)[C@@H]2CCCN2C(=O)c2ccc(N)cc21	KM12	inactive
